- System: human apolipoprotein B mRNA
- method_summary: Inhibition of human apolipoprotein B mRNA levels in HepG2 cells, quantitative real-time PCR
- Type: cell-based
- experimental_conditions: Table 1; HepG2 cells, 150 nM; averages from two experiments
In the oligonucleotide strings, read from the 5' end, every base follows the letter of its sugar. An asterisk marks phosphorothioate; unmarked linkages are phosphodiester. Other units and linkages are bracketed, terminal groups are in braces. A string of capitals states the bases alone. e = 2'-O-(2-methoxyethyl) (MOE); [5mC] = 5-methylcytosine; d = 2'-deoxy (DNA)
observable: % INHIB (%)
Give bare numbers, in %.

Example entries and their recorded answers appear below.
substance: 147788 (antisense eT*eT*eT*e[5mC]*eT*dG*dT*dT*dG*d[5mC]*d[5mC]*dA*d[5mC]*dA*dT*eT*eG*e[5mC]*e[5mC]*e[5mC]) [compound 147788]
result_number: 95
//
substance: 147781 (antisense eA*e[5mC]*e[5mC]*eG*eA*dG*dA*dA*dG*dG*dG*d[5mC]*dA*d[5mC]*dT*e[5mC]*eA*eG*e[5mC]*e[5mC]) [compound 147781]
result_number: 35
//
substance: 147823 (antisense eT*eG*e[5mC]*e[5mC]*e[5mC]*dT*dG*d[5mC]*dA*dG*d[5mC]*dT*dT*d[5mC]*dA*e[5mC]*eT*eG*eA*eA) [compound 147823]
result_number: 19
//
substance: 147794 (antisense eG*eT*eA*eA*eT*d[5mC]*dT*dT*d[5mC]*dA*dT*d[5mC]*d[5mC]*d[5mC]*d[5mC]*eA*eG*eT*eG*e[5mC]) [compound 147794]
result_number: 47

Here is another substance to look at.
[ask] Query (substance): 147817 (antisense eG*e[5mC]*eA*eT*eG*dG*dT*d[5mC]*d[5mC]*d[5mC]*dA*dA*dG*dG*dA*eT*eG*eG*eT*e[5mC]) [compound 147817] ; field requested: % INHIB
[reply] 0
